Where do the numbers come from? From patent US20250388565A1.

Target: ERα protein (HiBiT-tagged) in ESR1_HiBiT KI MCF7 cells (Homo sapiens, UniProt P03372)
Sequence (P03372 1-595): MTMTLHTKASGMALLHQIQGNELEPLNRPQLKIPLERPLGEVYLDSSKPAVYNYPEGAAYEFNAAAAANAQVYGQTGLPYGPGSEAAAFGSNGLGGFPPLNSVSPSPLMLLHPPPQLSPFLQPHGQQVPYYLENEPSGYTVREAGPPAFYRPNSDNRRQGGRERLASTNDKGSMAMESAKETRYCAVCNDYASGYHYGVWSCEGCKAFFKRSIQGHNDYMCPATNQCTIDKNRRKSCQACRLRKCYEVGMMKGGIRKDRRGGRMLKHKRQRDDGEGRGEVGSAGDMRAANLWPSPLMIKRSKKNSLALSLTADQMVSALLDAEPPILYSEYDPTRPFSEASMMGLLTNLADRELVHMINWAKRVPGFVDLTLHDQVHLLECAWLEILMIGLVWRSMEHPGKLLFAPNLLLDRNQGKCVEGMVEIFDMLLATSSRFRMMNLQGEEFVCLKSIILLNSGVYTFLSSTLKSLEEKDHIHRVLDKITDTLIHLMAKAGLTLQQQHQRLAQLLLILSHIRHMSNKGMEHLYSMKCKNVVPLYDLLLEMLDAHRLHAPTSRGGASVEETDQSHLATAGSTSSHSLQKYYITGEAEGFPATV
Assay: Nano Glo HiBiT Lytic Degradation Assay
Type: cell-based
Conditions: 6 hours with compound, 14-point dose response 1:3, bell-shape curve fit, half-maximal effect of first Hill model, read-out: MCF7 ESR1 HiBiT - (DC50)
ENDPOINT: DC50

O=C1CC[C@H](N2Cc3cc(N4CCN(CC5CCN(c6cc(F)c([C@@H]7c8ccc(O)cc8CC[C@@H]7c7ccccc7)c(F)c6)CC5)CC4)ccc3C2=O)C(=O)N1 = 0.15 nM
O=C1CCC(N2Cc3cc(N4CC5(CN(CC6CCN(c7ccc([C@@H]8c9ccc(O)cc9CC[C@@H]8c8ccccc8)cc7)CC6)C5)C4)ccc3C2=O)C(=O)N1 (single isomer, unassigned) = ≥ 10000 nM
O=C1CC[C@H](N2Cc3cc(N4CCN(CC5CCN(c6ccc([C@H]7c8ccc(O)cc8CC[C@H]7c7ccccc7)nc6)CC5)CC4)ccc3C2=O)C(=O)N1 = ≥ 10000 nM
Cc1ccccc1[C@@H]1CC(F)(F)c2cc(O)ccc2[C@@H]1c1ccc(N2CCC(CN3CCN(c4ccc5c(c4)CN([C@H]4CCC(=O)NC4=O)C5=O)CC3)CC2)cc1 = 33 nM
O=C1CC[C@H](N2Cc3cc(N4CCN(CC5CCN(c6ccc([C@H]7c8ccc9[nH]ncc9c8CC[C@H]7c7ccccc7)cc6)CC5)CC4)ccc3C2=O)C(=O)N1 (single isomer, unassigned) = 7 nM
O=C1CC[C@H](N2Cc3cc(N4CCN(CC5CCN(c6ccc([C@H]7c8ccc(O)cc8CC[C@H]7C7CCCCC7)cc6)CC5)CC4)ccc3C2=O)C(=O)N1 = ≥ 10000 nM
O=C1CC[C@H](N2Cc3cc(N4CCN(CC5CCN(c6ccc([C@@H]7c8ccc(O)cc8C(F)(F)C[C@@H]7C7CCCC7)cc6)CC5)CC4)ccc3C2=O)C(=O)N1 = 0.93 nM
C[C@]1(c2ccccc2)OCc2cc(O)ccc2[C@@H]1c1ccc(N2CCC(CN3CCN(c4ccc5c(c4)CN([C@H]4CCC(=O)NC4=O)C5=O)CC3)CC2)cc1 (single isomer, unassigned) = 5 nM
CC(C)[C@@H]1CC(F)(F)c2cc(O)ccc2[C@@H]1c1ccc(N2CCC(CN3CCN(c4ccc5c(c4)CN([C@H]4CCC(=O)NC4=O)C5=O)CC3)CC2)cc1 = 13 nM

Query "C[C@H]1OC2(CCCCC2)[C@@H](c2ccc(N3CCC(CN4CCN(c5ccc6c(c5)CN([C@H]5CCC(=O)NC5=O)C6=O)CC4)CC3)cc2)c2ccc(O)cc21" yields DC50 of ≥ 10000 nM

----------
DC50 values for the molecules below.
Target: ERα protein (HiBiT-tagged) in ESR1_HiBiT KI MCF7 cells (Homo sapiens)
Sequence (P03372 1-595): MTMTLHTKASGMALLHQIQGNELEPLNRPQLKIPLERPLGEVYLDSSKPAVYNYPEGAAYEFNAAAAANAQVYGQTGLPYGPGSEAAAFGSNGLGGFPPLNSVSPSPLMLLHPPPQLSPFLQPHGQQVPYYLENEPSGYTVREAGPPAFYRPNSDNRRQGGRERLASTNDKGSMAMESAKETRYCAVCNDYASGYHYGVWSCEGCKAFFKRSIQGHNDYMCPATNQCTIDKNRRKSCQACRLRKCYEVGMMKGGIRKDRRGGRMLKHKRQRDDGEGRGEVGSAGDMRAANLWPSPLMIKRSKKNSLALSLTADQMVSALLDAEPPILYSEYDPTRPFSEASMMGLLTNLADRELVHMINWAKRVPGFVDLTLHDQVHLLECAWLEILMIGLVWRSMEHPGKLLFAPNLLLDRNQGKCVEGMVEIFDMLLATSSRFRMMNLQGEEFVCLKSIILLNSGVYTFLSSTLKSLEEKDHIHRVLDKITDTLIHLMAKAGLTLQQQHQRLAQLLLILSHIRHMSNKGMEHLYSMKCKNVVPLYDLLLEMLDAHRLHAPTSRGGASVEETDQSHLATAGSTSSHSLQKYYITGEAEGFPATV
Test: Nano Glo HiBiT Lytic Degradation Assay
Assay type: cell-based
Settings: 6 hours with compound, 14-point dose response 1:3, bell-shape curve fit, half-maximal effect of first Hill model, read-out: MCF7 ESR1 HiBiT - (DC50)
Express it in nM; write the number only.

Consider the reported DC50 for these molecules:
O=C1CC[C@H](N2Cc3cc(N4CCN(CC5CCN(c6ccc([C@@H]7c8ccc(O)cc8CO[C@@H]7c7ccccc7)cc6F)CC5)CC4)ccc3C2=O)C(=O)N1 (single isomer, unassigned) = 0.16
O=C1CC[C@H](N2Cc3cc(N4CCN(CC5CCN(c6ccc([C@@H]7c8ccc(O)cc8C(F)(F)C[C@@H]7c7ccc(F)cc7)cc6)CC5)CC4)ccc3C2=O)C(=O)N1 = 0.62
O=C1CCC(N2Cc3cc(N4CCN(CC5CCN(c6ccc([C@@H]7c8ccc(O)cc8C(F)(F)C[C@@H]7c7ccccc7)cc6)CC5)CC4)ccc3C2=O)C(=O)N1 (some centres unmarked) = 0.32

Let us move to another entry and its DC50.
Query O=C1CC[C@H](N2Cc3cc(N4CCN(CC5CCN(c6ccc([C@@H]7c8ccc(O)cc8CO[C@@H]7c7ccc(C(F)(F)F)cc7)cc6)CC5)CC4)ccc3C2=O)C(=O)N1 (single isomer, unassigned) [Compound I-36] yields DC50 of 80

----------
Molecular target: ERα protein (HiBiT-tagged) in ESR1_HiBiT KI MCF7 cells (Homo sapiens, UniProt P03372)
Sequence (P03372 1-595): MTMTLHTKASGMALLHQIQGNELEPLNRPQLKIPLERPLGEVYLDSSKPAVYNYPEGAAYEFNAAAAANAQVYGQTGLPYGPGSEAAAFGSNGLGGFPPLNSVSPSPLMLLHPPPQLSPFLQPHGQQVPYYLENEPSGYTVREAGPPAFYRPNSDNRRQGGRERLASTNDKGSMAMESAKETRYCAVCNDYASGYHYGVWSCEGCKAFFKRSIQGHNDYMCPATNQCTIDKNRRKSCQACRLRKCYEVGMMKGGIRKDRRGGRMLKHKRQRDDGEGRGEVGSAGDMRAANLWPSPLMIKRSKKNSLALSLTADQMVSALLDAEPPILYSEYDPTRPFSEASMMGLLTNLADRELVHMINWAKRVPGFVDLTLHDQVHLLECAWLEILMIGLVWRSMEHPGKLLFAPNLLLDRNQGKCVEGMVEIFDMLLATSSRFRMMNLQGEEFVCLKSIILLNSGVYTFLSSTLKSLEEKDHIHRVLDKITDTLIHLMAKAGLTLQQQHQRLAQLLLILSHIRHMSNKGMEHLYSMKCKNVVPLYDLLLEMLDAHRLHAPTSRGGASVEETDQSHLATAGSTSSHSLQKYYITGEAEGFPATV
Experiment: Nano Glo HiBiT Lytic Degradation Assay
Assay type: cell-based
Conditions: 6 hours with compound, 14-point dose response 1:3, bell-shape curve fit, half-maximal effect of first Hill model, read-out: MCF7 ESR1 HiBiT - (DC50)
DC50 values for the compounds below.
Express it in nM; write the number only.

O=C1CCC(N2Cc3cc(N4CCC(CN5CCC(c6ccc([C@H]7c8ccc(O)cc8CC[C@H]7c7ccccc7)cc6)CC5)CC4)ccc3C2=O)C(=O)N1 (single isomer, unassigned) = 0.08

Let us move to another entry and its DC50.
Query C[C@H]1CN(c2ccc3c(c2)CN([C@H]2CCC(=O)NC2=O)C3=O)CCN1CC1CCN(c2ccc([C@@H]3c4ccc(O)cc4CC[C@@H]3c3ccccc3)cc2)CC1 (single isomer, unassigned) yields DC50 of 2

----------
target: ERα protein (HiBiT-tagged) in ESR1_HiBiT KI MCF7 cells (Homo sapiens, UniProt P03372); assay: Nano Glo HiBiT Lytic Degradation Assay; format: cell-based; conditions: 6 hours with compound, 14-point dose response 1:3, bell-shape curve fit, half-maximal effect of first Hill model, read-out: MCF7 ESR1 HiBiT - (DC50)
ENDPOINT: DC50

Consider the reported DC50 for these compounds:
O=C1CC[C@H](N2Cc3cc(N4CCN(CC5CCN(c6ccc([C@@H]7c8ccc(C(=O)O)cc8CC[C@@H]7c7ccccc7)cc6)CC5)CC4)ccc3C2=O)C(=O)N1 (single isomer, unassigned) [Compound I-2] = ≥ 10 µM
O=C1CC[C@H](N2Cc3cc(N4CCN(CC5CCN(c6ccc([C@H]7CCCc8cc(O)ccc87)cc6)CC5)CC4)ccc3C2=O)C(=O)N1 (single isomer, unassigned) [Compound I-102] = ≥ 10 µM
Cc1cc(F)c([C@@H]2CCc3cc(O)ccc3[C@@H]2c2ccc(N3CCC(CN4CCN(c5ccc6c(c5)CN([C@H]5CCC(=O)NC5=O)C6=O)CC4)CC3)cc2)cc1F [II-76] = ≥ 10 µM
Cn1ccc([C@@H]2CCc3cc(O)ccc3[C@@H]2c2ccc(N3CCC(CN4CCN(c5ccc6c(c5)CN([C@H]5CCC(=O)NC5=O)C6=O)CC4)CC3)cc2)n1 [Compound I-31] = ≥ 10 µM

Query CC(C1CCN(c2ccc([C@@H]3c4ccc(O)cc4CC[C@@H]3c3ccccc3)cc2)CC1)N1CCN(c2ccc3c(c2)CN([C@@H]2CCC(=O)NC2=O)C3=O)CC1 (single isomer, unassigned) [II-67] yields DC50 of 0.047 µM
